experiment: ATG_AP_1_CIS: Attagene CIS-FACTORIAL HepG2 Assay for human Activator Protein 1 (AP-1) (AID 2282931); conditions: HepG2 Attagene cis-factorial AP-1 reporter mRNA; actives raise or lower the signal
Activity calls are given as the source filed them. Rule for the calls: active = hit-call score of the fitted dose curve at least 0.9, where 1 is the maximum; inactive = score below 0.9.
Outcomes: t (active), f (inactive)

INSERT INTO assay_data (compound, assigned_class) VALUES
  ('CCc1cc(Cc2cc(CC)cc(C(C)(C)C)c2O)c(O)c(C(C)(C)C)c1', 't'),
  ('COCCOC(=O)c1ccccc1C(=O)OCCOC', 'f'),
  ('CN(c1nccc(=O)[nH]1)C1CCN(c2nc3ccccc3n2Cc2ccc(F)cc2)CC1', 'f'),
  ('CC(C)=CCCC(C)CCOC=O (stereo not drawn)', 'f'),
  ('CC1CCC(C(C)C)C(O)C1 (stereo not drawn)', 'f'),
  ('O=CCc1ccccc1', 'f'),
  ('CC(C)c1ccccc1O', 'f'),
  ('COc1ccccc1[N+](=O)[O-]', 'f'),
  ('IC(I)I', 'f'),
  ('COCCOCCOCCO', 'f'),
  ('CCCCCCCCSCCO', 'f'),
  ('C1=CC2C3C=CC(C3)C2C1 (stereo not drawn)', 'f'),
  ('CCC(=O)OCCOc1ccccc1', 'f'),
  ('CC=Cc1ccc(OC)c(OC)c1', 'f'),
  ('OCc1ccc(Cl)cc1Cl', 'f'),
  ('CCCC(O)C(O)CO (stereo not drawn)', 'f'),
  ('NC1CCCCC1N (stereo not drawn)', 'f'),
  ('COc1ccccc1N=Nc1c(S(=O)(=O)O)cc2cc(S(=O)(=O)O)cc(NC(C)=O)c2c1O', 'f'),
  ('NC(=S)NNC(N)=S', 'f'),
  ('C=CCCC(=O)/C=C/C1C(C)=CCCC1(C)C (stereo not drawn)', 't'),
  ('CC=Cc1ccc(OCC)c(O)c1', 'f'),
  ('Nc1ccc(Cl)c([N+](=O)[O-])c1', 'f'),
  ('CCOC(=O)CCc1ccccc1', 'f'),
  ('CCCCOC(=O)CCCCCCCC(=O)OCCCC', 'f'),
  ('COc1ccc(CCN2CCC(Nc3nc4ccccc4n3Cc3ccc(F)cc3)CC2)cc1', 'f'),
  ('C=C(C)C(=O)OCCOC1CC2CC1C1C=CCC21 (stereo not drawn)', 'f'),
  ('Cc1c(OCC(F)(F)F)ccnc1CS(=O)c1nc2ccccc2[nH]1 (stereo not drawn)', 'f'),
  ('CC[N+](C)(CC)CC', 'f'),
  ('CCCC(=O)OCCc1ccccc1', 'f'),
  ('CCCCCCC(C)Nc1ccc(Nc2ccccc2)cc1 (stereo not drawn)', 't'),
  ('CCCCCCOC(=O)C(C)C', 'f'),
  ('O=C1NC2NC(=O)NC2N1 (stereo not drawn)', 'f'),
  ('CCCC(C)C(O)CC (stereo not drawn)', 'f'),
  ('OCC(O)c1ccccc1 (stereo not drawn)', 'f'),
  ('O=[N+]([O-])c1cccc(Cl)c1', 'f'),
  ('c1ccc(CN(Cc2ccccc2)Cc2ccccc2)cc1', 'f'),
  ('C=CC(=O)OCCC#N', 'f'),
  ('NCc1ccco1', 'f'),
  ('CC(=O)CC(=O)Nc1ccc(C)cc1C', 'f'),
  ('CC(O)C1CCCCC1 (stereo not drawn)', 'f'),
  ('CC(C)(C)c1ccc(C(=O)O)cc1', 'f'),
  ('C=COCCOCCOC=C', 'f'),
  ('COc1cccc(OC)c1O', 'f'),
  ('C#CC(C)(O)CC(C)C (stereo not drawn)', 'f'),
  ('CC(=O)c1ccccn1', 'f'),
  ('CC(=O)O[C@H]1C[C@@H]2CC[C@@]1(C)C2(C)C', 'f'),
  ('CC(C)NCC(O)COc1ccc(CC(N)=O)cc1 (stereo not drawn)', 'f'),
  ('C=C(C)C(=O)OCCOCCOCCOCCOC(=O)C(=C)C', 'f'),
  ('CCCC(=O)c1ccccc1', 'f'),
  ('CCCCC(CC)(CO)CO', 'f'),
  ('CCC(C)c1cc([N+](=O)[O-])cc([N+](=O)[O-])c1OC(=O)OC(C)C (stereo not drawn)', 't'),
  ('O=CN1CCOCC1', 'f'),
  ('CCOC(=O)C1OC1c1ccccc1 (stereo not drawn)', 't'),
  ('CC(C)(C)C1=CC(=O)C(C(C)(C)C)=CC1=O', 'f'),
  ('Cc1occc(=O)c1OC(=O)C(C)C', 'f'),
  ('COCCc1ccc(OCC(O)CNC(C)C)cc1 (stereo not drawn)', 'f'),
  ('COC(=O)c1ccc(OC)cc1', 'f'),
  ('C[C@H]1C[C@@H](O)CC(C)(C)C1', 'f'),
  ('CC(=O)OCCCc1ccccc1', 'f'),
  ('CCc1ncc(C)[nH]1', 'f'),
  ('O=c1[nH]c(=O)c2cn[nH]c2[nH]1', 'f'),
  ('CC1(C)CCC[C@]2(C)[C@H]3CCO[C@]3(C)CC[C@@H]12', 't'),
  ('C=Cc1ccc(C)cc1', 'f');
